Measured Ki, listed per entry for reference.
- systemName: Melatonin receptor type 1A (Homo sapiens, UniProt P48039)
- Sequence (P48039 whole entry): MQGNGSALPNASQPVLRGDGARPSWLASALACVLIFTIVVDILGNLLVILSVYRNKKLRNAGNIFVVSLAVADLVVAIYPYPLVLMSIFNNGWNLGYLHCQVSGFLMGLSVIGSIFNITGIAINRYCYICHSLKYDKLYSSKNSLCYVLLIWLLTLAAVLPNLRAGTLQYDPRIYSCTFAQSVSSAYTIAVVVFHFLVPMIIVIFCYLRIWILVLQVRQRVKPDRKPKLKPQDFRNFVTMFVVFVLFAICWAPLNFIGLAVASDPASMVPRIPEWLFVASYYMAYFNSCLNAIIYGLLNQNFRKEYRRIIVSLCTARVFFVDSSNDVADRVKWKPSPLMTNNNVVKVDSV
- testDescription: Inhibition of 2-[125I]iodomelatonin binding to membrane preparations of NIH3T3 cells stably expressing human Melatonin receptor type 1A
- Assay type: cell membranes
Entry rule: numbers only, all in µM.

INSERT INTO measurements (compound, observedvalue) VALUES
  ('CCCC(=O)NCCCc1cccc2oc(CCCCc3ccccc3)cc12', 0.016),
  ('CCNC(=O)NCCCc1cccc2oc(CCCCc3ccccc3)cc12', 0.021),
  ('CCNC(=O)NC[C@@H]1C[C@H]1c1cccc2oc(CCCCc3ccccc3)cc12', 0.033),
  ('CCNC(=O)N[C@H]1CCN(c2cccc3oc(CCCCc4ccccc4)cc23)C1', 0.039),
  ('O=C(N[C@H]1CCN(c2cccc3oc(CCCCc4ccccc4)cc23)C1)C1CC1', 0.042);

Q: Let me know recorded Ki for `CC(=O)N[C@H]1CCN(c2cccc3oc(CCCCc4ccccc4)cc23)C1` , thanks.
Result: 0.022

Q: Specify measured Ki for `CC(=O)NCCCc1cccc2oc(CCCCc3ccccc3)cc12` .
Result: 0.019

Q: Retrieve Ki measured for O=C(NC[C@@H]1CC1c1cccc2oc(CCCCc3ccccc3)cc12)C1CC1 (stereo partly drawn) and print it.
Result: 0.016

----------
// reported log10(Ki) for each item listed
Protein target, amino acids: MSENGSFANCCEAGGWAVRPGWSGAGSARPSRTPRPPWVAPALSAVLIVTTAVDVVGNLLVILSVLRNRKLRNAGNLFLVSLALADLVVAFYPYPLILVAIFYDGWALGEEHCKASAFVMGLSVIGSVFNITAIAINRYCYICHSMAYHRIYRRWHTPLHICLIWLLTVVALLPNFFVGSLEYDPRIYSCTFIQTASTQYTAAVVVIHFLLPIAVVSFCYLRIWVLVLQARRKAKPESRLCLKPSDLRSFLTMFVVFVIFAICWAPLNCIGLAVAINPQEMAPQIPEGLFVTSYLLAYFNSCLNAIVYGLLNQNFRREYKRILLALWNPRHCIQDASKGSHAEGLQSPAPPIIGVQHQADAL
Use the decimal logarithm of Ki (nM).

INSERT INTO measurements (compound, observedvalue) VALUES
  ('CC(C)C(=O)NC[C@@H]1CC1c1cccc2oc(CCCCc3ccccc3)cc12 (some centres not stated)', 1.73),
  ('CC(C)C(=O)NCCCc1cccc2oc(CCCCc3ccccc3)cc12', 1.92),
  ('CCC(=O)N[C@H]1CCN(c2cccc3oc(CCCCc4ccccc4)cc23)C1', 0.78),
  ('CCC(=O)NCCCc1cccc2oc(CCCCc3ccccc3)cc12', 1.78),
  ('O=C(NC[C@@H]1CC1c1cccc2oc(CCCCc3ccccc3)cc12)C1CC1 (some centres not stated)', 1.52);

Q: Return value of log10(Ki) for input `CC(C)C(=O)N[C@H]1CCN(c2cccc3oc(CCCCc4ccccc4)cc23)C1` , no commentary.
Result: 2.21

Q: For `CC(=O)N[C@H]1CCN(c2cccc3oc(CCCCc4ccccc4)cc23)C1` , write its log10(Ki).
Result: 1.15

----------
- testDescription: Volume of distribution in rats after the administration of 1 mg/kg i.v. dose
- Format: ADME, organism-based
- Set-up: dose 1 mg/kg, route intravenous
- cond: rat, in vivo, iv
measurementLabel: Vd
Quick note: unit goes after the number.

Q: Given CC(=O)NC[C@@H]1CC1c1cccc2oc(CCCCc3ccccc3)cc12 (stereo partly specified) , respond with its Vd.
Result: 0.557 L/kg
